FYI, the data here is from ChEMBL document CHEMBL1201862.

# Test system: HCT-116
# measurementNotes: NCI tumour cell line growth inhibition, 48 h
Activity calls are given as the source filed them. No stated cut-off is given here; in the data, active = GI50 up to about 1.1 µM and inactive = higher.
Form entry, call: pick from active, inactive

Solved entries:
CCS(=O)(=O)c1c2cc(OC)ccc2nc2ccc(OC)cc12 ... inactive
CCOC(=O)C1C(c2ccc3c(c2)OCO3)c2c(n[nH]c2O)CC1(O)OCC (centres undefined) ... inactive
CCC1([N+](=O)[O-])CN(N=O)C1 ... inactive

Input: Could you please tell me the result logged for "CCOC(=O)C1(C(=O)OCC)C(C(C)(C)C)=C(C)c2ccccc21" in this assay?
Output: inactive

Input: Now consider "O=Nc1c(-c2cccc([N+](=O)[O-])c2)nc2cnccn12" .
Output: inactive

Input: Now consider "CC1=CC(=O)/C(=C/NC(=S)C(N)=S)C(=O)O1" .
Output: inactive

Input: Now consider "CC(=O)O[C@H]1C[C@H](O[C@H]2[C@@H](O)C[C@H](O[C@H]3[C@@H](O)C[C@H](O[C@H]4CC[C@@]5(C)[C@H](CC[C@@H]6[C@@H]5CC[C@]5(O)[C@@H](C7=CC(=O)OC7)CC[C@]65O)C4)O[C@@H]3C)O[C@@H]2C)O[C@H](C)[C@H]1O[C@@H]1O[C@H](CO)[C@@H](O)[C@H](O)[C@H]1O" .
Output: active

Input: Now consider CC(=O)C1C(=O)C(=O)N(c2ccc([N+](=O)[O-])cc2[N+](=O)[O-])C1=O (centres undefined) .
Output: inactive

Input: Now consider "Cc1cc2[nH]c3[nH]c(=O)[nH]c(=O)c3c2cc1C" .
Output: inactive
